Source listed as PubChem BioAssay (NCI).

test: NCI Yeast Anticancer Drug Screen. Data for the mlh1 rad18 strain (AID 175); conditions: S. cerevisiae mlh1 rad18 strain growth inhibition; at 50.0 µM; active compounds read high
This is part of a sample that, as a whole, favours compounds with a hit. Of some 79,000 tested, about 15% had one in any assay.
metric name: growth inhibition (%)
Report only the number, with the unit % understood.

// query For N=C1N=Nc2nc(CC(=O)c3ccc(Cl)cc3Cl)c(O)n21 , write its growth inhibition.
// result -37.6

// query Recall and state the measured growth inhibition for Cn1c(=O)c2[nH]c(C3CC(=O)CC(c4nc5c([nH]4)c(=O)n(C)c(=O)n5C)N3)nc2n(C)c1=O (configuration not stated) .
// result 7.15

// query Identify growth inhibition associated with the compound COC(=O)c1c[nH]c(C=O)c1C
// result 8.8

// query Note growth inhibition for the compound shown: CC1(C)CN(Cc2ccccc2)C(C)(C)CN1
// result -4.65

// query Quickly give me recorded growth inhibition for CSS(=O)(=O)C(c1ccccc1)c1ccccc1
// result -14.8

// query Answer with reported growth inhibition of N#C/C(=C\c1ccccc1[N+](=O)[O-])C(=O)O
// result 3.7

// query Item CCOc1ccc2nc(SCCl)sc2c1 : provide growth inhibition
// result 2.8
